Reported protein stability index values for a set of variants
B1: STX5 (parent)
chain: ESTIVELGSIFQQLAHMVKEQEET

variants of: B1; assay: protein stability index of a GFP-peptide fusion (GPS, HEK-293T) (PSI 1-6); higher = more stable; conditions: c terminus: a fixed tail appended;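 note: lentivirally expressed fusions sorted by FACS into six bins by GFP to DsRed ratio, PSI derived from sequencing read proportions per bin multiplied by bin number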
measured_attribute: protein stability index

• E6M = 1.95
• M17L = 1.7
• E6F = 2.19
• L7G = 5.65
• L7N = 4.96
• I4N = 3.05
• F11P = 4.65
• Q12I = 2.26
• E6Q = 2.33
• Q12H = 3.15
• T24N = 2.88
• K19Y = 1.17
• E22L = 5.42
• L7W = 2.99
• T3I = 2.94
